Target: Adenosine receptor A1 (Homo sapiens)
Test: Displacement of [3H]DPCPX from human recombinant A1 receptor expressed in CHOA1 cell membranes at 1 uM incubated for 60 mins by radioligand binding competition assay relative to control
Items are presented alongside their recorded inhibition.

# Compound, inhibition [%]
records = [
    ("CC1=C(C(=O)OCC(F)(F)F)C(c2cccs2)n2c(nc3ccccc32)N1 (racemic)", 1),
    ("CC1=C(C(=O)O[C@H](C)C(F)(F)F)C(c2ccco2)n2c(nc3ccccc32)N1 (mixture of isomers)", 12),
    ("CC1=C(C(=O)O[C@@H](C)C(F)(F)F)[C@H](c2ccco2)n2c(nc3ccccc32)N1", 7),
    ("CC1=C(C(=O)OC(C)C(F)(F)F)C(c2cccs2)NC(=O)N1 (stereo in doubt; 14k-D2)", 16),
]
